Target: T1, corticotropin releasing factor 2 receptor
T1 sequence (Q13324 whole entry, species assumed, looked up): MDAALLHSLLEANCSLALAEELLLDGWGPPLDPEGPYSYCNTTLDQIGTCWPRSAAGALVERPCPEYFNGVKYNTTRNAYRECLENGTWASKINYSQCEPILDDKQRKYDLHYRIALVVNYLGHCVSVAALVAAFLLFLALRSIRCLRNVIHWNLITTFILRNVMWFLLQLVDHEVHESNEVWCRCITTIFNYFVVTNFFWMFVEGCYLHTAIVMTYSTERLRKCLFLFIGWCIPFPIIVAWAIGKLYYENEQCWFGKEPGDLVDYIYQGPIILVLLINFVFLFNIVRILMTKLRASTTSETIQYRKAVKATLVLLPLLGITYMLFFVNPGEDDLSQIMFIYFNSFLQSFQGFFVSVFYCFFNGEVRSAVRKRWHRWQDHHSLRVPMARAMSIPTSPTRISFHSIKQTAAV
Test: cell-based or functional assay
Ends that are not written are not given here.
What CRF2R EC50 was measured for each of the following?
One number for each entry, in nM.

Look over these answered cases.
ZGPPISIDLPYWLLRKVIEIEKQEKEKQQAANNALLLDTI (C-terminal amide) [SEQ ID NO 311]
11.7
IVLSLDVVIGLLQILLEQARARAAREQATTNARILARV-NH2 [SEQ ID NO 214]
74.3
ZGPPISIDLPFFLLRKMIEIEKQEKEKQQAANNRLLLDTI (C-terminal amide) [SEQ ID NO 223]
3
NDDPPISIDLPLYLLRNMIEMARIENEREQAGLNAKYLAEV-NH2 [SEQ ID NO 271]
48.1

Batch lookup, CRF2R EC50 per entry.
1. ZGPPISIDLPYQLLRKMIEIEKQEKEKQQAANNARLLAR (C-terminal amide) [SEQ ID NO 288]
2. ZGPPISIDLPYYLLRKMIEIEKQEKEKQQAANNALLLDTI (C-terminal amide) [SEQ ID NO 226]
3. ZGPPISIDLPYFLLRKMIEIEKQEKEKQQAANNRLLLDTI (C-terminal amide) [SEQ ID NO 220]
4. DNPSLSIDLPYYLLRTLLELARTQSQRERAEQNAIIFASV-NH2 [SEQ ID NO 263]
5. DNPSLSIDVPLLLLRTLLELEKTQSQRERAEQNARIFARV-NH2 [SEQ ID NO 384]

Result ::
1. 14.7
2. 7.6
3. 4.1
4. 36.2
5. 7.1
